Source: patent US20020082254A1

Target of assay: UniProt:Q05469
Assay notes: Hormone-sensitive lipase (HSL) inhibition assay, 3H-labeled triolein or MOME substrate
Assay type: biochemical
Cond: read-out: HSL inhibition (IC50)
Assay readout: IC50

>>> result("COc1ccc(OC(=O)NN2CCc3ccccc3C2)cc1")
"360 nM"
>>> result("O=C(NN1CCc2ccccc2C1)Oc1ccc(C(F)(F)F)cc1")
"45 nM"
>>> result("CC1Cc2ccccc2CN1NC(=O)Oc1ccc(Cl)cc1 (centres unmarked)")
"40 nM"
>>> result("O=C(NN1CCc2ccccc2C1)Oc1ccc(Cl)c(C(F)(F)F)c1")
"> 10000 nM"
>>> result("CCc1ccc(OC(=O)NN2CCc3ccccc3C2)cc1")
"70 nM"

###

// IC50 lookup, one value per entry
Target of assay: Hormone-sensitive lipase (HSL) (Homo sapiens)
Assay notes: Hormone-sensitive lipase (HSL) inhibition assay, 3H-labeled triolein or MOME substrate
Format: biochemical
Assay readout: IC50

>>> result("O=C(NN1CCOCC1)Oc1ccc(Cl)cc1")
"100 nM"
>>> result("O=C(NN1CCCCC1)Oc1ccc(Cl)cc1")
"50 nM"
>>> result("O=C(NN1CCc2ccccc2C1)Oc1ccc(Cc2ccccc2)cc1")
"90 nM"

###

Target of assay: Hormone-sensitive lipase (HSL) (Homo sapiens, UniProt Q05469)
Sequence (Q05469 whole entry): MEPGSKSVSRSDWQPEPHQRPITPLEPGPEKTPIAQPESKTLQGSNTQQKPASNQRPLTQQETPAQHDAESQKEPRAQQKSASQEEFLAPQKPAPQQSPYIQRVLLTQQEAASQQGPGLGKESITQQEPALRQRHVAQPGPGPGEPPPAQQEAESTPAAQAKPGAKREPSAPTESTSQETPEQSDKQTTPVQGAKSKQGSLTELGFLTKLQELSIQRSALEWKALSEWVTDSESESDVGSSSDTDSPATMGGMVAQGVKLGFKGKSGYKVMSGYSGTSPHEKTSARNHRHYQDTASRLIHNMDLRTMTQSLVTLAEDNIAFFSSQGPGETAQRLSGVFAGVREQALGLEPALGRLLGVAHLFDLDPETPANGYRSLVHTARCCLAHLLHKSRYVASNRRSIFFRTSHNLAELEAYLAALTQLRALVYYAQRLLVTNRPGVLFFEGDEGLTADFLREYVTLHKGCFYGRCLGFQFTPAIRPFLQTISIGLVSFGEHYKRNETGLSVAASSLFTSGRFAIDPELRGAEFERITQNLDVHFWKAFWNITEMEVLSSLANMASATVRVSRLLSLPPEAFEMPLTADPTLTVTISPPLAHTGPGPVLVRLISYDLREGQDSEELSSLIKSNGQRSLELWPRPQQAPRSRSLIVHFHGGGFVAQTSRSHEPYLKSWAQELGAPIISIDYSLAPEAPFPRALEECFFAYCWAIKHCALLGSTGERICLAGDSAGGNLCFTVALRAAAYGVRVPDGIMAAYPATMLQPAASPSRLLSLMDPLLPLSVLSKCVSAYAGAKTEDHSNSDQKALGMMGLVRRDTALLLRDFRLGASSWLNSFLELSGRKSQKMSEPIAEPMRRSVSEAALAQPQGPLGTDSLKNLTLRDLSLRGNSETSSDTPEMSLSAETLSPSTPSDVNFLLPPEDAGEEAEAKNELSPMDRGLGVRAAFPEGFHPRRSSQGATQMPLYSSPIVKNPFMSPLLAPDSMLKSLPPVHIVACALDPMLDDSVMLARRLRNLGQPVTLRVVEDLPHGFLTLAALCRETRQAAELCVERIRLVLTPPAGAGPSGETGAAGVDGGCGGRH
Assay notes: Hormone-sensitive lipase (HSL) inhibition assay, 3H-labeled triolein or MOME substrate
Assay type: biochemical
Cond: read-out: HSL inhibition (IC50)
Measured IC50 values are reported for all entries that follow.
Assay readout: IC50 (nM)

>>> result_number("COC(=O)Cc1ccc(OC(=O)NN2CCc3ccccc3C2)cc1")
40
>>> result_number("CCCCCOc1ccc(OC(=O)NN2CCc3ccccc3C2)cc1")
3900
>>> result_number("CC(C)(C)OC(=O)Nc1ccc(OC(=O)NN2CCc3ccccc3C2)cc1")
3
>>> result_number("O=C(NN1CCc2ccccc2C1)Oc1ccc(Cl)cc1")
19
>>> result_number("CC1c2ccccc2CCN1NC(=O)Oc1ccc(Cl)cc1 (stereo not drawn)")
30
>>> result_number("COc1cc2c(cc1OC)CN(NC(=O)Oc1ccc(Cl)cc1)CC2")
1400
>>> result_number("O=C(NN1CCc2ccccc2C1)Oc1ccccc1F")
1500
>>> result_number("Cc1cccc(OC(=O)NN2CCc3ccccc3C2)c1")
670
>>> result_number("CCCOc1ccc(OC(=O)NN2CCc3ccccc3C2)cc1")
2500
>>> result_number("COc1ccccc1OC(=O)NN1CCc2ccccc2C1")
6400
>>> result_number("O=C(NN1CCc2ccccc2C1)Oc1ccccc1")
200
>>> result_number("O=C(NN1CCc2ccccc2C1)Oc1ccc(OCc2ccccc2)cc1")
2600
>>> result_number("Cc1ccc(OC(=O)NN2CCc3ccccc3C2)cc1")
30

###

Target of assay: Hepatic lipase (HL) (Homo sapiens)
Sequence (P11150 23-499, species assumed): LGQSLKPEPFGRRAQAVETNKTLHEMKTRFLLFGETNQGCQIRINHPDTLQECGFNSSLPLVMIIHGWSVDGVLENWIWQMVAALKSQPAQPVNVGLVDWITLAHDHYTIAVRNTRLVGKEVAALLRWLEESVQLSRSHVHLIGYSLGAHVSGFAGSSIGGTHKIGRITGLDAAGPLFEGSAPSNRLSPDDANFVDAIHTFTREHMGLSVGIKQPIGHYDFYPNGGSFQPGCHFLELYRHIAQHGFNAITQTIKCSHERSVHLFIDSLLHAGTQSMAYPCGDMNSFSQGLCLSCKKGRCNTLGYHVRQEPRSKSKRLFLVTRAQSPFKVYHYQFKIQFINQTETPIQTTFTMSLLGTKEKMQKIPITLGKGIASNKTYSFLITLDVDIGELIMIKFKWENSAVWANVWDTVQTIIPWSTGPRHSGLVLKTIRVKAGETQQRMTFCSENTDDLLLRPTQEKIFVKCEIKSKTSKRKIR
Assay notes: Hepatic lipase (HL) inhibition assay, 3H-triolein substrate
Assay type: biochemical
Cond: read-out: HL inhibition (% inh. at 50 μM)
Assay readout: inhibition at 50 µM

>>> result("CC(C)(C)OC(=O)Nc1ccc(OC(=O)NN2CCc3ccccc3C2)cc1")
"3%"
>>> result("O=C(NN1CCc2ccccc2C1)Oc1ccccc1")
"5%"
>>> result("CC1Cc2ccccc2CN1NC(=O)Oc1ccc(Cl)cc1 (stereo not shown)")
"4%"
>>> result("O=C(NN1CCc2ccccc2C1)Oc1ccc(Cl)cc1")
"6%"
